- TEST_NAME: activity coefficient (dimensionless); of the first substance listed, at infinite dilution; xn = mol fraction of the nth substance listed
- EXPERIMENTAL_SETUP: 353.15 K; 101 kPa; Liquid; Chromatography; x1 = 0
Parameter: activity coefficient. Scope: all listed entries.
// return a plain number; no unit text

Examples with answers:
MOLECULE: CC(C)CC(C)(C)C [2,2,4-trimethylpentane] + CCCCOP(=O)([O-])OCCCC.CCCCn1cc[n+](C)c1
QUANTITY_NAME: activity coefficient
RECORDED_MEASUREMENT: 5.94
//
MOLECULE: CCCCC [pentane] + CCCCOP(=O)([O-])OCCCC.CCCCn1cc[n+](C)c1
QUANTITY_NAME: activity coefficient
RECORDED_MEASUREMENT: 3.79
//
MOLECULE: CCCCCCCCC [nonane] + CCCCOP(=O)([O-])OCCCC.CCCCn1cc[n+](C)c1
QUANTITY_NAME: activity coefficient
RECORDED_MEASUREMENT: 7.02
//
MOLECULE: Cc1ccc(C)cc1 [1,4-dimethylbenzene] + CCCCOP(=O)([O-])OCCCC.CCCCn1cc[n+](C)c1
QUANTITY_NAME: activity coefficient
RECORDED_MEASUREMENT: 1.75
//
MOLECULE: C1CCCCC1 [cyclohexane] + CCCCOP(=O)([O-])OCCCC.CCCCn1cc[n+](C)c1
QUANTITY_NAME: activity coefficient
RECORDED_MEASUREMENT: 2.68

Fill in: activity coefficient of Cc1ccccc1 [toluene] + CCCCOP(=O)([O-])OCCCC.CCCCn1cc[n+](C)c1 is ___
1.29

Field entry: C=Cc1ccccc1 [styrene] + CCCCOP(=O)([O-])OCCCC.CCCCn1cc[n+](C)c1
1.03
